All values here come from patent US12544355B2.

Molecular target: pancrelipase (Type II, derived from a porcine pancreas) (Sus scrofa, UniProt P00591)
Sequence (P00591 1-450): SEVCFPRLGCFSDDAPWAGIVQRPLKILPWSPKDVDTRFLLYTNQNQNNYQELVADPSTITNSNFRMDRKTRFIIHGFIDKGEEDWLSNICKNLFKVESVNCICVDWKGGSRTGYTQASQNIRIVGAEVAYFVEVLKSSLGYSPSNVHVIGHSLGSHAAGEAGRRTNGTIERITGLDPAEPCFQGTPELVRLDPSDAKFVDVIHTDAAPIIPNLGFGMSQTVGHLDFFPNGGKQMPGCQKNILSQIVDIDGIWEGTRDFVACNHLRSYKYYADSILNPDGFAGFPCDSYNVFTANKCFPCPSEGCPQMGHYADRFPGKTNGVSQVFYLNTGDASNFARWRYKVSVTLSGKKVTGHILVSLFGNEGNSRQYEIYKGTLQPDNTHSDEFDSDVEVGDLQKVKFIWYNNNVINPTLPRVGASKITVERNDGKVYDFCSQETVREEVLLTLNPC
observation type: IC50 (µM)
Report as a plain number; the unit µM is understood.

Please report the recorded IC50 for C/C=C/C1=CC2=C(CO1)C[C@]1(C)OC(=O)[C@H](C(O)CCCCC)[C@H]1C2 (stereo partly shown) .
219
